Below is a list of entries, each paired with its recorded Pre-emergence action against VIOTR in % value.
test system: VIOTR; assay: Pre-emergence herbicidal action against VIOTR; format: in vivo, Viola tricolor; conditions: 320 g/ha
Supply the numeric figure in %, leaving out any unit text.

Some molecules with known Pre-emergence action against VIOTR in % results, for comparison:
| MOLECULE | DISPLAY UNIT | Pre-emergence action against VIOTR in % |
| --- | --- | --- |
| CC#Cc1cc(C)c(C2=C(OC(=O)C(C)C)C3(CCC(COCC)C3)NC2=O)c(OC)c1 (stereo not drawn) [Example P-50] | % | 100 |
| CC#Cc1cc(Br)c(C2=C(OC(=O)C(C)C)C3(CCC(COC)C3)NC2=O)c(OC)c1 (stereo not drawn) [Example P-04] | % | 100 |
| CC#Cc1cc(C)c(C2=C(OC(=O)C(C)C)C3(CCC(COCC)C3)NC2=O)c(Br)c1 (stereo not drawn) [Example P-36] | % | 100 |
| C#CCOCC1CCC2(C1)NC(=O)C(c1c(C)cc(C#CC)cc1Cl)=C2OC(=O)OCC (stereo not drawn) [Example P-100] | % | 100 |
| CC#Cc1cc(C)c(C2=C(OC(=O)OCC)C3(CCC(COCC)C3)NC2=O)c(Cl)c1 (stereo not drawn) [Example P-28] | % | 100 |

The recorded Pre-emergence action against VIOTR in % for C=CCOCC1CCC2(C1)NC(=O)C(c1c(C)cc(C#CC)cc1Cl)=C2OC(=O)OCC (stereo not drawn) [Example P-71] is 100

Lab book: Pre-emergence action against VIOTR in % of CC#Cc1cc(Br)c(C2=C(O)C3(CCC(COCC)C3)NC2=O)c(OC)c1 (stereo not drawn) [Example I-05] noted as 90
